// provenance: ChEMBL document CHEMBL4689842

# System: HEK-293T
# assay: Multiplex assay against HEK293T
# Type: toxicity, cell-based
# condition-set: human, 24 h, 1 µM, compound concentration 1 uM, replicate 2
experimental-readout: Population Apoptotic (%)
Numbers only, in %.

Examples with their reported Population Apoptotic (%) follow.
CCOC(=O)Nc1cc(-c2ccc(C)c(NS(C)(=O)=O)c2)nn2c(C)nnc12; 6
Cl.O=C(O)c1cc(-c2ccc(C3CCNCC3)cc2)c2ccc(-c3ccc(C(F)(F)F)cc3)cc2c1; 9
C=CC(=O)Nc1cccc(Sc2nc(Nc3ccc(N4CCN(C)CC4)cc3)ncc2Cl)c1; 28
CC(C)CC(=O)Nc1[nH]nc2c1CN(C(=O)C1CCN(C)CC1)C2(C)C; 11
Cc1ccc(C)c(Oc2ccncc2C(=O)N2CCN(C3CC3)c3ccccc32)c1; 11

I would be grateful if you could provide Population Apoptotic (%) for each of the following entries.
1. Cc1ccccc1C(c1ccccc1C)N1C2CCC1CC(O)(c1ccccc1)C2 (centres undefined)
2. C=CC(=O)Nc1cccc(Oc2nc(Nc3ccc(N4CCN(C)CC4)cc3OC)ncc2Cl)c1
3. CC(C)Oc1ccccc1C(=O)Nc1ccccc1C(=O)Nc1cccc(S(=O)(=O)C(F)(F)F)c1

[13, 13, 42]

Suppose we examine the compound CC1=C(C(=O)Nc2cc3cn[nH]c3cc2F)C(c2ccc(C(F)(F)F)cc2)CC(=O)N1 (centres undefined) ; what Population Apoptotic (%) value has been reported?
12
